Parameter: viability, T/C. Scope: all listed entries.
- System: MPNST complex spheroid with HUVEC/MSC, growth, % test/control
- PROCEDURE DETAILS: Anticancer human tumor MPNST cell line growth inhibition [Asc];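 further: compounds left on spheroids for seven days before reading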
- EXPERIMENTAL SETUP: second compound 0.00316 µM; first compound 0.1 µM; active compounds read low
Just the number in %, nothing appended.

Illustrative cases are given below, each with its answer.
API: value(readout=viability, T/C, system=MPNST complex spheroid with HUVEC/MSC, growth, % test/control) for record C=CC(=O)N1CCN(c2nc(=O)n(-c3c(C)ccnc3C(C)C)c3nc(-c4c(O)cccc4F)c(F)cc23)C(C)C1 (stereo not drawn) + CNC(C)C(=O)NC1CN(S(=O)(=O)c2cccc(S(=O)(=O)N3CCC4CCC(C(=O)NC(c5ccccc5)c5ccccc5)N4C(=O)C(NC(=O)C(C)NC)C3)c2)CCC2CCC(C(=O)NC(c3ccccc3)c3ccccc3)N2C1=O 98.1

Param readout = viability, T/C; param system = MPNST complex spheroid with HUVEC/MSC, growth, % test/control; param query = C=C(F)C(=O)N1CCN(c2nc(OCC3CCCN3C)nc3c2CCN(c2cccc4cccc(Cl)c24)C3)CC1CC#N (stereo not drawn) + CNC(C)C(=O)NC1CN(S(=O)(=O)c2cccc(S(=O)(=O)N3CCC4CCC(C(=O)NC(c5ccccc5)c5ccccc5)N4C(=O)C(NC(=O)C(C)NC)C3)c2)CCC2CCC(C(=O)NC(c3ccccc3)c3ccccc3)N2C1=O ; response: value 75.2

Query compound follows.
Under MPNST complex spheroid with HUVEC/MSC, growth, % test/control: viability, T/C value of C#Cc1c(F)ccc2cc(O)cc(-c3ncc4c(N5CC6CCC(C5)N6)nc(OCC56CCCN5CC(F)C6)nc4c3F)c12 (stereo not drawn) + CNC(C)C(=O)NC1CN(S(=O)(=O)c2cccc(S(=O)(=O)N3CCC4CCC(C(=O)NC(c5ccccc5)c5ccccc5)N4C(=O)C(NC(=O)C(C)NC)C3)c2)CCC2CCC(C(=O)NC(c3ccccc3)c3ccccc3)N2C1=O ? 43.9

---

- Test system: MPNST complex spheroid with HUVEC/MSC, growth, % test/control
- PROCEDURE DETAILS: Anticancer human tumor MPNST cell line growth inhibition [Asc];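 further: compounds left on spheroids for seven days before reading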
- EXPERIMENTAL SETUP: second compound 1 µM; first compound 0.0949 µM; active compounds read low
PROPERTY LABEL: viability, T/C (%)
# value in %; strip the unit string

Some compounds with known viability, T/C results, for comparison:
Fill in the blank: the reported viability, T/C of Cc1nc(N2CCC3(CC2)COC(C)C3N)c(CO)nc1Sc1ccnc(N)c1Cl (centres undefined) + Cc1c(S(C)(=O)=O)c(-c2cc(F)cc(N3CCN(c4ccc(NS(=O)(=O)c5ccc(NC(CCN6CCC(C(=O)OCCCP(=O)(O)O)CC6)CSc6ccccc6)c(S(=O)(=O)C(F)(F)F)c5)cc4)CC3)c2)c(-c2ccc(Cl)cc2)n1C(C)C is ____. 126

Item CCN1C(C(=O)NC23CCC(C(=O)O)(CC2)CC3)C(c2cccc(Cl)c2F)C2(C(=O)Nc3cc(Cl)ccc32)C12CCCCC2 (centres undefined) + Cc1c(S(C)(=O)=O)c(-c2cc(F)cc(N3CCN(c4ccc(NS(=O)(=O)c5ccc(NC(CCN6CCC(C(=O)OCCCP(=O)(O)O)CC6)CSc6ccccc6)c(S(=O)(=O)C(F)(F)F)c5)cc4)CC3)c2)c(-c2ccc(Cl)cc2)n1C(C)C has what recorded viability, T/C? 78.9

Reported viability, T/C for CCN1C(C(=O)NC23CCC(C(=O)O)(CC2)CC3)C(c2cccc(Cl)c2F)C2(C(=O)Nc3cc(Cl)ccc32)C12CCCCC2 (centres undefined) + CNC(C)C(=O)NC1CN(S(=O)(=O)c2cccc(S(=O)(=O)N3CCC4CCC(C(=O)NC(c5ccccc5)c5ccccc5)N4C(=O)C(NC(=O)C(C)NC)C3)c2)CCC2CCC(C(=O)NC(c3ccccc3)c3ccccc3)N2C1=O : what is it? 87.7

Now consider the entry below.
Any idea what viability, T/C was measured for NC(=O)C(=Cn1cnc(-c2cc(C(F)(F)F)cc(C(F)(F)F)c2)n1)c1cncnc1 + CNC(C)C(=O)NC1CN(S(=O)(=O)c2cccc(S(=O)(=O)N3CCC4CCC(C(=O)NC(c5ccccc5)c5ccccc5)N4C(=O)C(NC(=O)C(C)NC)C3)c2)CCC2CCC(C(=O)NC(c3ccccc3)c3ccccc3)N2C1=O ? 47.8

---

- Test system: MPNST complex spheroid with HUVEC/MSC, growth, % test/control
- PROCEDURE DETAILS: Anticancer human tumor MPNST cell line growth inhibition [Asc]; active = viability on the fitted dose curve at most 10% of control; inactive = the rest;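 further: compounds left on spheroids for seven days before reading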
- EXPERIMENTAL SETUP: second compound 0.316 µM; first compound 1 µM
Valid outcomes are listed here; reply with one: active, inactive

Solved cases below.
Outcome logged for C=CC(=O)N1CCN(c2nc(=O)n(-c3c(C)ccnc3C(C)C)c3nc(-c4c(O)cccc4F)c(F)cc23)C(C)C1 (centres undefined) + CNC(C)C(=O)NC1CN(S(=O)(=O)c2cccc(S(=O)(=O)N3CCC4CCC(C(=O)NC(c5ccccc5)c5ccccc5)N4C(=O)C(NC(=O)C(C)NC)C3)c2)CCC2CCC(C(=O)NC(c3ccccc3)c3ccccc3)N2C1=O in this assay: inactive

Field: outcome | Entry: C=C(F)C(=O)N1CCN(c2nc(OCC3CCCN3C)nc3c2CCN(c2cccc4cccc(Cl)c24)C3)CC1CC#N (centres undefined) + CNC(C)C(=O)NC1CN(S(=O)(=O)c2cccc(S(=O)(=O)N3CCC4CCC(C(=O)NC(c5ccccc5)c5ccccc5)N4C(=O)C(NC(=O)C(C)NC)C3)c2)CCC2CCC(C(=O)NC(c3ccccc3)c3ccccc3)N2C1=O inactive

Could you kindly confirm the outcome this assay logged for CNC(C)C(=O)NC1CN(S(=O)(=O)c2cccc(S(=O)(=O)N3CCC4CCC(C(=O)NC(c5ccccc5)c5ccccc5)N4C(=O)C(NC(=O)C(C)NC)C3)c2)CCC2CCC(C(=O)NC(c3ccccc3)c3ccccc3)N2C1=O (centres undefined) + Cc1c(S(C)(=O)=O)c(-c2cc(F)cc(N3CCN(c4ccc(NS(=O)(=O)c5ccc(NC(CCN6CCC(C(=O)OCCCP(=O)(O)O)CC6)CSc6ccccc6)c(S(=O)(=O)C(F)(F)F)c5)cc4)CC3)c2)c(-c2ccc(Cl)cc2)n1C(C)C ? inactive

New cases:
Entry COc1c(OCCCN2CCOCC2)ccc2c3n(c(=NC(=O)c4cnc(N)nc4)nc12)CCN3 + CNC(C)C(=O)NC1CN(S(=O)(=O)c2cccc(S(=O)(=O)N3CCC4CCC(C(=O)NC(c5ccccc5)c5ccccc5)N4C(=O)C(NC(=O)C(C)NC)C3)c2)CCC2CCC(C(=O)NC(c3ccccc3)c3ccccc3)N2C1=O : call = ? active

Assay result, entry O=C(c1ccc(F)c(F)c1Nc1ccc(I)cc1F)N1CC(O)([C@@H]2CCCCN2)C1 + Cc1c(S(C)(=O)=O)c(-c2cc(F)cc(N3CCN(c4ccc(NS(=O)(=O)c5ccc(NC(CCN6CCC(C(=O)OCCCP(=O)(O)O)CC6)CSc6ccccc6)c(S(=O)(=O)C(F)(F)F)c5)cc4)CC3)c2)c(-c2ccc(Cl)cc2)n1C(C)C — outcome? inactive

Hello, I am checking results. What call was entered for COc1c(OCCCN2CCOCC2)ccc2c3n(c(=NC(=O)c4cnc(N)nc4)nc12)CCN3 + Cc1c(S(C)(=O)=O)c(-c2cc(F)cc(N3CCN(c4ccc(NS(=O)(=O)c5ccc(NC(CCN6CCC(C(=O)OCCCP(=O)(O)O)CC6)CSc6ccccc6)c(S(=O)(=O)C(F)(F)F)c5)cc4)CC3)c2)c(-c2ccc(Cl)cc2)n1C(C)C ? inactive

Please let me know the test result on file for O=C(c1cc(Cc2n[nH]c(=O)c3ccccc23)ccc1F)N1CCN(C(=O)C2CC2)CC1 + CNC(C)C(=O)NC1CN(S(=O)(=O)c2cccc(S(=O)(=O)N3CCC4CCC(C(=O)NC(c5ccccc5)c5ccccc5)N4C(=O)C(NC(=O)C(C)NC)C3)c2)CCC2CCC(C(=O)NC(c3ccccc3)c3ccccc3)N2C1=O . inactive

// return assay outcome for C#Cc1c(F)ccc2cc(O)cc(-c3ncc4c(N5CC6CCC(C5)N6)nc(OCC56CCCN5CC(F)C6)nc4c3F)c12 (centres undefined) + CNC(C)C(=O)NC1CN(S(=O)(=O)c2cccc(S(=O)(=O)N3CCC4CCC(C(=O)NC(c5ccccc5)c5ccccc5)N4C(=O)C(NC(=O)C(C)NC)C3)c2)CCC2CCC(C(=O)NC(c3ccccc3)c3ccccc3)N2C1=O inactive

Name the outcome recorded for CCN1CCN(Cc2ccc(Nc3ncc(F)c(-c4cc(F)c5nc(C)n(C(C)C)c5c4)n3)nc2)CC1 + CNC(C)C(=O)NC1CN(S(=O)(=O)c2cccc(S(=O)(=O)N3CCC4CCC(C(=O)NC(c5ccccc5)c5ccccc5)N4C(=O)C(NC(=O)C(C)NC)C3)c2)CCC2CCC(C(=O)NC(c3ccccc3)c3ccccc3)N2C1=O in the assay. inactive
